Each recorded value in this set is attributed to paper PMC6009932.

Examples of compounds with documented melting point follow.

Solved entries:
compound | melting point
Fc1ccccc1-n1cc(Cn2cc(Br)c3c(Cl)ncnc32)nn1 [Compound 9d] | 145 to 147 °C
O=c1cc(Cn2cc(Cn3ccc4ccccc43)nn2)c2ccc(O)cc2o1 [Compound 11e] | 155 to 158 °C
Fc1ccc2c(ccn2Cc2cn(-c3ccc(Cl)cc3)nn2)c1 [Compound 10b] | 117 to 120 °C
Fc1ccccc1-n1cc(Cn2cnc3c(Cl)ncnc32)nn1 [Compound 4d] | 143 to 145 °C
O=c1cc(Cn2cc(Cn3cnc4ncnc(Cl)c43)nn2)c2ccc(O)cc2o1 [Compound 6e] | > 250 °C

We now examine a further compound.
Qu. May I ask what melting point has been recorded for FC(F)(F)c1ccc(-n2cc(Cn3cc(Br)c4c(Cl)ncnc43)nn2)cc1 [Compound 9c] ?
Ans. 220 to 221 °C
